System: Staphylococcus simulans
Test: Antibacterial activity against Staphylococcus simulans 22 assessed as inhibition of bacterial growth incubated for 16 hrs in presence of C15-PP by broth microdilution assay
Format: functional, organism-based
Active and inactive are the calls of the source. The rule behind the calls is not given here.
endpoint: Activity

# smiles-entry, endpoint, result
records = [
    ("CCCCCCCCCC(=O)N[C@@H](Cc1c[nH]c2ccccc12)C(=O)N[C@H](CC(N)=O)C(=O)N[C@@H](CC(=O)O)C(=O)N[C@H]1CNC(=O)[C@@H](CC(=O)c2ccccc2N)NC(=O)[C@H](CCC(=O)O)NC(=O)[C@@H](CO)NC(=O)CNC(=O)[C@H](CC(=O)O)NC(=O)[C@@H](C)NC(=O)[C@H](CC(=O)O)NC(=O)[C@H](CCCN)NC(=O)CNC1=O", "Activity", "Active"),
    ("CCCCCCCCCC(=O)N[C@@H](Cc1c[nH]c2ccccc12)C(=O)N[C@H](CC(N)=O)C(=O)N[C@@H](CC(=O)O)C(=O)N[C@H]1CNC(=O)[C@@H](CC(=O)c2ccccc2N)NC(=O)[C@H](CCC(=O)O)NC(=O)[C@@H](CO)NC(=O)CNC(=O)[C@H](CC(=O)O)NC(=O)[C@@H](C)NC(=O)[C@H](CC(=O)O)NC(=O)[C@H](CCCN)NC(=O)[C@H]2CCCCN2C1=O", "Activity", "Active"),
]

Values from ChEMBL document CHEMBL4680073
